Data provenance: ChEMBL document CHEMBL1143194

# subject of test: Melanocyte-stimulating hormone receptor (Mus musculus)
# test method notes: Agonist activity at mouse MC1R expressed in HEK293 cells assessed as forskolin-stimulated response by beta-galactosidase reporter gene assay
measured quantity: EC50 (µM)

compound="CCCN1C(=O)C(Cc2ccccc2)NC(=O)c2ccccc21 (stereo not given)" unit_annotation=µM readout_relation== observed_result=6.9
compound="NC(N)=NCCCC1NC(=O)c2ccc(Cl)cc2N(Cc2ccccc2)C1=O (stereo not given)" unit_annotation=µM readout_relation== observed_result=1.8
compound="O=C1NC(Cc2ccccc2)C(=O)N(Cc2ccccc2)c2ccccc21 (stereo not given)" unit_annotation=µM readout_relation== observed_result=32.9
compound="O=C1NC(Cc2c[nH]c3ccccc23)C(=O)N(Cc2ccc3ccccc3c2)c2cc(Cl)ccc21 (stereo not given)" unit_annotation=µM readout_relation=> observed_result=100
compound="Cc1cccc2c1N(Cc1ccccc1)C(=O)C(Cc1cn(Cc3ccccc3)c3ccccc13)NC2=O (stereo not given)" unit_annotation=µM readout_relation== observed_result=21.6

###

# EC50 per record follows
# subject of test: UniProtKB P33033
# Sequence (P33033 whole entry): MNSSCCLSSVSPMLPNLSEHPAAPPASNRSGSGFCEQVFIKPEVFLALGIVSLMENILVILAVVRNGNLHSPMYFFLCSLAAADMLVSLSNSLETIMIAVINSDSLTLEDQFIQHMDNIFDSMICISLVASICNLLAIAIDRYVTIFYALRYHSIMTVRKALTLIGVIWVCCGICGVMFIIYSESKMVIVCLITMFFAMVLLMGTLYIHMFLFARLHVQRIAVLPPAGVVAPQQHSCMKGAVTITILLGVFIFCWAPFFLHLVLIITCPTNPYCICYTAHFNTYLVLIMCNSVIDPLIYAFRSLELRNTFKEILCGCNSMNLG
# test method notes: Agonist activity at mouse MC3R expressed in HEK293 cells assessed as forskolin-stimulated response by beta-galactosidase reporter gene assay
measured quantity: EC50 (µM)

compound="NC(N)=NCCCC1NC(=O)c2ccc(Cl)cc2N(Cc2ccccc2)C1=O (stereo not given)" unit_annotation=µM readout_relation== observed_result=30.6
compound="NC(N)=NCCCC1NC(=O)c2ccccc2N(Cc2ccccc2)C1=O (stereo not given)" unit_annotation=µM readout_relation=> observed_result=100
compound="Cc1cccc2c1N(Cc1ccccc1)C(=O)C(Cc1cn(Cc3ccccc3)c3ccccc13)NC2=O (stereo not given)" unit_annotation=µM readout_relation=> observed_result=100
compound="NCCCCC1NC(=O)c2ccc(Cl)cc2N(Cc2ccccc2)C1=O (stereo not given)" unit_annotation=µM readout_relation== observed_result=0.32
compound="CCCCN1C(=O)C(Cc2ccccc2)NC(=O)c2ccccc21 (stereo not given)" unit_annotation=µM readout_relation=> observed_result=100
compound="O=C1NC(Cc2ccccc2)C(=O)N(Cc2ccccc2)c2ccccc21 (stereo not given)" unit_annotation=µM readout_relation=> observed_result=100
compound="O=C1NC(Cc2c[nH]c3ccccc23)C(=O)N(Cc2ccc3ccccc3c2)c2cc(Cl)ccc21 (stereo not given)" unit_annotation=µM readout_relation=> observed_result=100
compound="O=C1NC(Cc2c[nH]c3ccccc23)C(=O)N(Cc2ccccc2)c2ccccc21 (stereo not given)" unit_annotation=µM readout_relation=> observed_result=100
compound="O=C1NC(Cc2ccccc2)C(=O)N(Cc2ccccc2-c2ccccc2)c2ccccc21 (stereo not given)" unit_annotation=µM readout_relation== observed_result=4.16
compound="O=C1NC(Cc2ccccc2)C(=O)N(Cc2ccc3ccccc3c2)c2cc(Cl)ccc21 (stereo not given)" unit_annotation=µM readout_relation== observed_result=23.3

###

# subject of test: Melanocyte-stimulating hormone receptor (Mus musculus, UniProt Q01727)
# Sequence (Q01727 whole entry): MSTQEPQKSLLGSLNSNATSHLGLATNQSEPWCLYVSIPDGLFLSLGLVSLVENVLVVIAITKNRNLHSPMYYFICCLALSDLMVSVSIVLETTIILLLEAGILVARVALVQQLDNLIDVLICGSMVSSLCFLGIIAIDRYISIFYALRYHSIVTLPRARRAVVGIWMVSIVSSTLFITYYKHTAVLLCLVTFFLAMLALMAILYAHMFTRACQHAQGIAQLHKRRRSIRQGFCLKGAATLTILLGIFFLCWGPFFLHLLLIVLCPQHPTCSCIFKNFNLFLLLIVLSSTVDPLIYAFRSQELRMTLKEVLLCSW
# test method notes: Agonist activity at mouse MC1R expressed in HEK293 cells assessed as forskolin-stimulated response by beta-galactosidase reporter gene assay
pEC50: −log10 of the molar value.
Respond with y for pEC50 values of 5 and above, n for values below.

molecule="NCCCCC1NC(=O)c2ccc(Cl)cc2N(Cc2ccccc2)C1=O (stereo not given)" subject_of_test="Melanocyte-stimulating hormone receptor (Mus musculus, UniProt Q01727)" cat=y
molecule="O=C1NC(Cc2ccccc2)C(=O)N(Cc2ccccc2-c2ccccc2)c2ccccc21 (stereo not given)" subject_of_test="Melanocyte-stimulating hormone receptor (Mus musculus, UniProt Q01727)" cat=y
molecule="O=C1NC(Cc2ccccc2)C(=O)N(Cc2ccc3ccccc3c2)c2cc(Cl)ccc21 (stereo not given)" subject_of_test="Melanocyte-stimulating hormone receptor (Mus musculus, UniProt Q01727)" cat=y
molecule="NC(N)=NCCCC1NC(=O)c2ccccc2N(Cc2ccccc2)C1=O (stereo not given)" subject_of_test="Melanocyte-stimulating hormone receptor (Mus musculus, UniProt Q01727)" cat=n
molecule="NCCCCC1NC(=O)c2ccc(Cl)cc2N(Cc2ccc3ccccc3c2)C1=O (stereo not given)" subject_of_test="Melanocyte-stimulating hormone receptor (Mus musculus, UniProt Q01727)" cat=y
